- method-description: Plasma protein binding by Rapid Equilibrium Dialysis
- Assay type: in vitro ADME
- condition-context: pooled human plasma diluted to 10% v/v in PBS, pH 7.4, RED 24 h, 37 °C, corrected for dilution, read-out: % Bound
property-measured: fraction unbound at 24 h, 2000 ng/mL

> print(dat)
                                   molecule    result
1  CC1=C(/C=C/C(C)=C/C=C/C(C)=C/C(=O)Nc2ccc(O)cc2)C(C)(C)CCC1 [4-HPR, N-(4-hydroxyphenyl) retinamide]  < 0.0005

###

- method-description: Single-dose IV PK of 4-HPR in mice with and without ABT
- Type: in vivo, male C57Bl/6 mice
- condition-context: male, C57Bl/6, mouse, plasma, iv, 2 mg/kg, single-dose 2 mg/kg IV, +ABT (50 mg/kg, b.i.d); read-out: Plasma AUC0-inf
property-measured: AUC(0-inf) (µM·h)

> print(dat)
                                   compound  property.measured  measured.number
1  CC1=C(/C=C/C(C)=C/C=C/C(C)=C/C(=O)Nc2ccc(O)cc2)C(C)(C)CCC1 [4-HPR, N-(4-hydroxyphenyl) retinamide]         AUC(0-inf)             24.5

###

- method-description: Single-dose IV PK of 4-HPR in mice with and without ABT
- Type: in vivo, male C57Bl/6 mice
- condition-context: male, C57Bl/6, mouse, plasma, iv, observed under both conditions (±ABT); read-out: In vivo systemic clearance
- Description: C57Bl/6 mice (22.6–28.7 g) having access to food and water ad libitum throughout the pre- and post-dose sampling period were dosed with 4-HPR either orally by gavage (2–10 mL/kg, depending upon formulation) or IV by bolus injection into the lateral tail vein (50 μL/animal, 2 mL/kg), and blood samples were collected up to 49 h post-dose by either submandibular bleed or terminal cardiac puncture (n = 3–5 mice per timepoint for each formulation) with a maximum of four samples from each mouse. […]
property-measured: clearance (mL/min/kg)

> print(dat)
                                   compound  measured.number
1  CC1=C(/C=C/C(C)=C/C=C/C(C)=C/C(=O)Nc2ccc(O)cc2)C(C)(C)CCC1 [4-HPR, N-(4-hydroxyphenyl) retinamide]              4.4

###

- method-description: Single-dose IV PK of 4-HPR in mice with and without ABT
- Format: in vivo, male C57Bl/6 mice
- condition-context: male, C57Bl/6, mouse, plasma, iv, 2 mg/kg, single-dose 2 mg/kg IV, +ABT (50 mg/kg, b.i.d); read-out: Plasma CL
- Experimental: C57Bl/6 mice (22.6–28.7 g) having access to food and water ad libitum throughout the pre- and post-dose sampling period were dosed with 4-HPR either orally by gavage (2–10 mL/kg, depending upon formulation) or IV by bolus injection into the lateral tail vein (50 μL/animal, 2 mL/kg), and blood samples were collected up to 49 h post-dose by either submandibular bleed or terminal cardiac puncture (n = 3–5 mice per timepoint for each formulation) with a maximum of four samples from each mouse. […]
property-measured: clearance

> print(dat)
                                   molecule         result
1  CC1=C(/C=C/C(C)=C/C=C/C(C)=C/C(=O)Nc2ccc(O)cc2)C(C)(C)CCC1 [4-HPR, N-(4-hydroxyphenyl) retinamide]  3.6 mL/min/kg
